Where do these numbers come from? They come from patent US20240173377A1.

- study_system: HLA DRB1*1101 (human)
- protocol_summary: HLA class II competition binding assay
test_readout: IC50 (nM)
Dear colleague, please return just the value in nM, with no unit written.

Sure, the documented IC50 for EEQYNSTYTVVSVLTVLHQD [SEQ ID NO 114] is 84
